Target: HLA-B*51:01
Assay: IEDB peptide-MHC binding, purified MHC/direct/fluorescence; filed as Kd, often an IC50 or EC50 that approximates it; bounds were set here for any values at or beyond the usual limits of such assays
Settings: source organism: Camelpox virus M-96
Assay Metric: pKd
Conceptually, pKd converts a concentration in mol/L into minus its log10.

Query string: Could you share which pKd value was measured for `YPAVINSNI` ?
Result string: 6.53

###

Target: HLA-B*15:01
Assay: IEDB peptide-MHC binding, purified MHC/direct/fluorescence; filed as Kd, often an IC50 or EC50 that approximates it; bounds were set here for any values at or beyond the usual limits of such assays
Conditions: source organism: Salmonella enterica subsp. enterica serovar Typhimurium
Assignment: determine reported Kd for the given sequences.
Could you give me the number in µM? Just the number is fine.

Query string: Could you share which Kd value was measured for `MMLAQAYYG` ?
Result string: 5.78

Query string: Could you share which Kd value was measured for `YLGPTIRVW` ?
Result string: 1.22

###

Molecular target: HLA-A*26:01
Experiment: IEDB peptide-MHC binding, purified MHC/direct/fluorescence; filed as Kd, often an IC50 or EC50 that approximates it; bounds were set here for any values at or beyond the usual limits of such assays
Conditions: source organism: Escherichia coli
Assay Metric: pKd
Conceptually, pKd converts a concentration in mol/L into minus its log10.

Query string: Could you share which pKd value was measured for `LMQWWSDYV` ?
Result string: 6.46

###

Target: HLA-B*07:02
Assay: IEDB peptide-MHC binding, purified MHC/competitive/fluorescence; bounds were set here for any values at or beyond the usual limits of such assays
Conditions: source organism: Sudan ebolavirus
Assay Metric: IC50 (µM)
Could you give me the number in µM? Just the number is fine.

Query string: Could you share which IC50 value was measured for `SPGMVPLHI` ?
Result string: 6.66

###

Biological target: HLA-A*26:01
Test: IEDB peptide-MHC binding, purified MHC/competitive/fluorescence; filed as Kd, often an IC50 or EC50 that approximates it; bounds were set here for any values at or beyond the usual limits of such assays
Details: source organism: Giardia lamblia ATCC 50803
pKd: −log10 of the molar value.
Assay Metric: pKd

Query string: Could you share which pKd value was measured for `APDGFYPFK` ?
Result string: ≤ 4.70

###

Target: HLA-A*24:03
Test: IEDB peptide-MHC binding, purified MHC/direct/fluorescence; filed as Kd, often an IC50 or EC50 that approximates it; bounds were set here for any values at or beyond the usual limits of such assays
Conditions: source organism: Cryptosporidium parvum Iowa II
Assay Metric: Kd

Query string: Could you share which Kd value was measured for `MPMSMPIPM` ?
Result string: ≥ 20 µM

Query string: Could you share which Kd value was measured for `LPLESCFGV` ?
Result string: ≥ 20 µM

###

Biological target: HLA-B*15:01
Assay: IEDB peptide-MHC binding, purified MHC/competitive/fluorescence; filed as Kd, often an IC50 or EC50 that approximates it; bounds were set here for any values at or beyond the usual limits of such assays
Conditions: source organism: Vaccinia virus WR
Assay Metric: pKd
Conceptually, pKd converts a concentration in mol/L into minus its log10.

Query string: Could you share which pKd value was measured for `EIKDRILSY` ?
Result string: 6.78

###

Biological target: HLA-B*18:01
Assay: IEDB peptide-MHC binding, purified MHC/direct/fluorescence; filed as Kd, often an IC50 or EC50 that approximates it; bounds were set here for any values at or beyond the usual limits of such assays
Settings: source organism: West Nile virus strain PTRoxo
pKd: −log10 of the molar value.
Assay Metric: pKd

Query string: Could you share which pKd value was measured for `EIPDVLNSL` ?
Result string: ≤ 4.70

###

Biological target: HLA-A*69:01
Experiment: IEDB peptide-MHC binding, purified MHC/direct/fluorescence; filed as Kd, often an IC50 or EC50 that approximates it; bounds were set here for any values at or beyond the usual limits of such assays
Conditions: source organism: Entamoeba histolytica HM-1:IMSS
pKd: −log10 of the molar value.
Assay Metric: pKd

Query string: Could you share which pKd value was measured for `SMFERDFHF` ?
Result string: ≤ 5.30

###

Target: HLA-B*54:01
Experiment: IEDB peptide-MHC binding, purified MHC/competitive/radioactivity; filed as Kd, often an IC50 or EC50 that approximates it; bounds were set here for any values at or beyond the usual limits of such assays
Details: source organism: Mammarenavirus guanaritoense
Assay Metric: pKd
Conceptually, pKd converts a concentration in mol/L into minus its log10.

Query string: Could you share which pKd value was measured for `CPMCCSKIL` ?
Result string: 6.81

###

Target: HLA-B*46:01
Experiment: IEDB peptide-MHC binding, purified MHC/direct/fluorescence; filed as Kd, often an IC50 or EC50 that approximates it; bounds were set here for any values at or beyond the usual limits of such assays
Conditions: source organism: Burkholderia mallei ATCC 23344
Assay Metric: Kd

Query string: Could you share which Kd value was measured for `QHAWPLPPL` ?
Result string: ≥ 20 µM

###

Target: HLA-A*02:06
Assay: IEDB peptide-MHC binding, purified MHC/competitive/radioactivity; filed as Kd, often an IC50 or EC50 that approximates it; bounds were set here for any values at or beyond the usual limits of such assays
Conditions: source organism: Mammarenavirus guanaritoense
Assay Metric: pKd
Conceptually, pKd converts a concentration in mol/L into minus its log10.

Query string: Could you share which pKd value was measured for `TNAEFTFQL` ?
Result string: 5.44

###

Target: HLA-A*02:03
Assay: IEDB peptide-MHC binding, purified MHC/competitive/fluorescence; filed as Kd, often an IC50 or EC50 that approximates it; bounds were set here for any values at or beyond the usual limits of such assays
Conditions: source organism: Vibrio cholerae V52
Assay Metric: Kd

Query string: Could you share which Kd value was measured for `IGYRLGMGK` ?
Result string: ≥ 20 µM

###

Target: HLA-B*45:06
Assay: IEDB peptide-MHC binding, purified MHC/competitive/fluorescence; filed as Kd, often an IC50 or EC50 that approximates it; bounds were set here for any values at or beyond the usual limits of such assays
Details: source organism: Yaba-like disease virus
Assay Metric: Kd

Query string: Could you share which Kd value was measured for `NTDNKFISY` ?
Result string: ≥ 5 µM

###

Biological target: HLA-B*15:01
Experiment: IEDB peptide-MHC binding, purified MHC/competitive/radioactivity; filed as Kd, often an IC50 or EC50 that approximates it; bounds were set here for any values at or beyond the usual limits of such assays
Conditions: source organism: Dengue virus 1 Singapore/S275/1990
Assay Metric: pKd
Conceptually, pKd converts a concentration in mol/L into minus its log10.

Query string: Could you share which pKd value was measured for `IMILKLLTDF` ?
Result string: 7.91

###

Biological target: HLA-A*69:01
Assay: IEDB peptide-MHC binding, purified MHC/direct/fluorescence; filed as Kd, often an IC50 or EC50 that approximates it; bounds were set here for any values at or beyond the usual limits of such assays
Settings: source organism: Influenza A virus (A/Viet Nam/HN/2004(H5N1))
pKd: −log10 of the molar value.
Assay Metric: pKd

Query string: Could you share which pKd value was measured for `VSPLAVTWW` ?
Result string: ≤ 4.70

###

Target: HLA-B*39:01
Assay: IEDB peptide-MHC binding, purified MHC/direct/fluorescence; filed as Kd, often an IC50 or EC50 that approximates it; bounds were set here for any values at or beyond the usual limits of such assays
Settings: source organism: Vibrio vulnificus YJ016
Assay Metric: Kd

Query string: Could you share which Kd value was measured for `SVFELSNFA` ?
Result string: ≥ 20 µM

###

Biological target: HLA-A*68:02
Experiment: IEDB peptide-MHC binding, purified MHC/competitive/fluorescence; bounds were set here for any values at or beyond the usual limits of such assays
Conditions: source organism: Homo sapiens
Assay Metric: pIC50
Conceptually, pIC50 converts a concentration in mol/L into minus its log10.

Query string: Could you share which pIC50 value was measured for `SYMMDDLELI` ?
Result string: 6.11

###

Target: HLA-A*11:01
Experiment: IEDB peptide-MHC binding, purified MHC/direct/fluorescence; filed as Kd, often an IC50 or EC50 that approximates it; bounds were set here for any values at or beyond the usual limits of such assays
Settings: source organism: Bacillus anthracis
Assay Metric: Kd

Query string: Could you share which Kd value was measured for `DTVLFNAGL` ?
Result string: ≥ 20 µM

###

Molecular target: HLA-A*02:06
Experiment: IEDB peptide-MHC binding, purified MHC/competitive/fluorescence; filed as Kd, often an IC50 or EC50 that approximates it; bounds were set here for any values at or beyond the usual limits of such assays
Conditions: source organism: Human immunodeficiency virus 1
Assay Metric: pKd
Conceptually, pKd converts a concentration in mol/L into minus its log10.

Query string: Could you share which pKd value was measured for `RSLFNTIATLY` ?
Result string: 6.69

Query string: Could you share which pKd value was measured for `LNTVATLY` ?
Result string: 7.25

Query string: Could you share which pKd value was measured for `KSLFNTIATLY` ?
Result string: 6.60
